Source of measurements: patent US12692257B2

System: MV4-11 (leukemia)
Assay: Cell proliferation inhibition in vitro, CellTiter-Glo, MV4-11
Assay type: cell-based
Conditions: Homo sapiens; MV4-11 cells, 120 hours, CellTiter-Glo; read-out: MV4-11/IC50/μM
readout type: IC50

                                 cpd_smiles  readout_type  assay_value
0  Cc1nn(-c2cccnc2)c(C)c1-c1cc(N2CCOC[C@H]2C)nc(-c2cc(F)cc3[nH]ccc23)n1          IC50     0.193 µM
1  Cc1nn(-c2cccnn2)c(C)c1-c1cc(N2CCOC[C@H]2C)nc(-c2cc(F)cc3[nH]ccc23)n1          IC50     0.082 µM
2  CNc1nc2ccccc2n1-c1nc(-c2c(C)nn(-c3ccc(C#N)nc3)c2C)cc(N2CCOC[C@H]2C)n1          IC50     0.133 µM
3  Cc1nn(-c2cncc(F)c2)c(C)c1-c1cc(N2CCOC[C@H]2C)nc(-n2c(NCCO)nc3ccccc32)n1          IC50      0.24 µM
